The entries below come with measured z-score values attached.
ASSAY TEXT: fission yeast growth modulation, primary screen, strain 972, OD600, 24 h, no modulator (AID 1090);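 note: basal condition with compound alone and no growth modifier present; test concentration not given here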
STUDY CONDITIONS: S. pombe 972 growth, higher = more signal, called active from +8 up or from −8 down

- MOLECULE: "CCN1C(=O)[C@H]2[C@H]3[C@H](O)[C@H](O)CC(=NOC[C@@H](O)[C@H]4O[C@@H]5OC(C)(C)O[C@@H]5[C@H]4O)[C@@H]3CC[C@H]2C1=O"
  z-score: 0.234
- MOLECULE: "CON=C(C)CCN1CCc2nc(-c3ccccc3)c(-c3ccccc3)cc2C1"
  z-score: -17.2
- MOLECULE: "CCOC(=O)[C@H](CC(C)C)NC(=O)CCC1CC(OC(=O)NCc2ccc3c(c2)OCO3)CC2(CCCC(COC(=O)NCc3ccccc3)O2)O1 (stereo partly drawn)"
  z-score: 1.12
- MOLECULE: "CCOC(=O)CCN1C(=O)[C@H]2[C@H]3[C@H](O)[C@H](O)CC(=NNC(=O)OCc4ccc(OC)cc4)[C@H]3CC[C@H]2C1=O"
  z-score: -0.257
- MOLECULE: "O=C1CCCC=C1C(O)COCc1ccccc1 (stereo not drawn)"
  z-score: -0.233
- MOLECULE: "CN1CCc2nc(-c3ccccc3)c(-c3ccccc3)cc2C1"
  z-score: 0.173
- MOLECULE: "C=CC[C@@H]1C=C[C@H](ON=CC[C@@H]2C=C[C@H](OC(C)=O)[C@@H](COC(C)=O)O2)[C@@H](CO)O1"
  z-score: 0.489
- MOLECULE: "CC(=O)OC[C@H]1O[C@@H](ON=C(C)C)[C@H](OC(C)=O)[C@@H](OC(C)=O)[C@@H]1OC(C)=O"
  z-score: -0.159
- MOLECULE: "C=CC[C@@H]1C=C[C@H](ON=C2C[C@@H](O)[C@@H](O)[C@@H]3[C@@H]4C(=O)N(CC)C(=O)[C@@H]4CC[C@@H]23)[C@@H](CO)O1"
  z-score: -0.376
- MOLECULE: "CCN1C(=O)[C@H]2[C@@H]3C(=CC[C@H]2C1=O)C(=O)[C@H]1O[C@H]1[C@H]3O"
  z-score: -0.3
- MOLECULE: "CON=C(C)CCN1CCCc2nc(C)c(C)cc21"
  z-score: -0.837
- MOLECULE: "CCN1C(=O)[C@H]2[C@H]3[C@H](O)[C@H](O)CC(=NO[C@H](C)c4cn([C@@H]5COC[C@H]5O)nn4)[C@@H]3CC[C@H]2C1=O"
  z-score: 1.01
- MOLECULE: "CCc1cc2c(nc1CC)CCN(CCC(C)=NOC(C)CN1CCCCc3nc(C)c(C)cc31)C2 (stereo not drawn)"
  z-score: -16.2
- MOLECULE: "COC(=O)CC=C[C@@H](C)[C@@H](C=NOC[C@@H](O)COCc1ccco1)OC"
  z-score: -0.543
- MOLECULE: "COc1cccc([C@H]2Oc3ccc(OC)cc3C(=NO[C@@H](C)c3cc(-c4c(C)cc(C)cc4C)no3)[C@@H]2O)c1"
  z-score: 1.49
- MOLECULE: "CC(CCN1CCCCc2nc(C)c(C)cc21)=NO[C@H](C)c1cn([C@@H]2COC[C@H]2O)nn1"
  z-score: 1.07
- MOLECULE: "CCOC(=O)CCN1C(=O)[C@H]2[C@H]3[C@H](O)[C@H](O)CC(=NOCC=C(C)CCC=C(C)C)[C@@H]3CC[C@H]2C1=O"
  z-score: 0.237
- MOLECULE: "COc1ccc(O[C@H]2C=C[C@@H](c3ccccc3)O[C@@H]2CO)cc1"
  z-score: -1.27
- MOLECULE: "CC(=O)OC[C@H]1O[C@H](CC=NOC(C)CN2CCCCc3nc(C)c(C)cc32)C=C[C@@H]1OC(C)=O (stereo partly drawn)"
  z-score: -0.0245
- MOLECULE: "CCN1C(=O)[C@H]2[C@H]3[C@H](O)[C@H](O)CC(=NOCC[C@@H]4C=C[C@H](OC(C)=O)[C@@H](COC(C)=O)O4)[C@@H]3CC[C@H]2C1=O"
  z-score: -0.473
- MOLECULE: "CO[C@H]1C[C@@H]2C[C@H](O)CC(CC(=O)O[C@@H](C=CCC(C)C)C[C@@H]3CC[C@H](C)[C@@H](C1)O3)O2"
  z-score: -0.425
- MOLECULE: "COC(=O)CC=C[C@@H](C)[C@@H](C=NOC(C)CN1CCCCc2nc(C)c(C)cc21)OC (stereo partly drawn)"
  z-score: -0.472
- MOLECULE: "CON=C[C@@H](OC)[C@H](C)C=CCC(=O)OC"
  z-score: -0.289
